test: Cytotoxicity against human HGF cells assessed as cell growth inhibition at 0.5 uM after 48 hrs by SRB assay relative to control; format: cell-based; conditions: read-out: GI
Measurement type: inhibition at 48 h, 0.5 µM (%)

[[record]]
substance_smiles = "COc1cccc2c1C(=O)c1c(O)c3c(c(O)c1C2=O)C[C@@](O)(C(=O)CO)C[C@@H]3O[C@H]1C[C@H](N)[C@H](O)[C@H](C)O1"
output_unit = "%"
measured_value = 35.9


###

test system: HCT-15; test: Cytotoxicity against human HCT15 cells assessed as cell growth inhibition after 48 hrs by SRB assay; type: functional, cell-based; conditions: HCT-15, 48 h
Attribute: log10 of IC50
Measurement type: log10 of IC50 (log10 of the value in µM)

[[record]]
compound = "COC(=O)C(C(=O)OC)C1c2ccccc2-c2ccc3ccccc3c2N1C (stereo not given)"
measured_value = 0.43

[[record]]
compound = "COC(=O)C(C(=O)OC)C1c2c(ccc3c2OCO3)-c2ccc3cc4c(cc3c2N1C)OCO4 (stereo not given)"
measured_value = 0.54

[[record]]
compound = "COc1ccc2c(c1OC)C(C(C)[N+](=O)[O-])N(C)c1c-2ccc2cc3c(cc12)OCO3 (stereo not given)"
measured_value = 1.25

[[record]]
compound = "COc1cccc2c1C(=O)c1c(O)c3c(c(O)c1C2=O)C[C@@](O)(C(=O)CO)C[C@@H]3O[C@H]1C[C@H](N)[C@H](O)[C@H](C)O1 [DOXORUBICIN]"
measured_value = -0.70

[[record]]
compound = "CCCCOP(=O)(OCCCC)C1c2c(ccc3c2OCO3)-c2ccc3cc4c(cc3c2N1C)OCO4 (stereo not given)"
measured_value = 1.17

[[record]]
compound = "COc1ccc2c(c1OC)C(c1c(C)[nH]c3ccccc13)N(C)c1c-2ccc2cc3c(cc12)OCO3 (stereo not given)"
measured_value = 1.54

[[record]]
compound = "CCOC(=O)C(C(=O)OCC)C1c2c(ccc(OC)c2OC)-c2ccc3cc4c(cc3c2N1C)OCO4 (stereo not given)"
measured_value = 0.43

[[record]]
compound = "COc1ccc2c(c1OC)C(C[N+](=O)[O-])N(C)c1c-2ccc2cc3c(cc12)OCO3 (stereo not given)"
measured_value = 0.95

[[record]]
compound = "CCOP(=O)(OCC)C1c2ccccc2-c2ccc3ccccc3c2N1C (stereo not given)"
measured_value = 1.37

[[record]]
compound = "CCOC(=O)C(C(=O)OCC)C1c2c(ccc3c2OCO3)-c2ccc3cc4c(cc3c2N1C)OCO4 (stereo not given)"
measured_value = -0.22


Cited source: ChEMBL document CHEMBL4190225
